- EXPERIMENTAL_DETAILS: Antagonist activity at human recombinant CXCR2 assessed as inhibition of CXCL1-induced neutrophil chemotaxis after 45 mins by calcein-AM dye based plate reader method
As shown below, each of these compounds has a reported pIC50 value.
Entry type: numeric. Quantity: pIC50, the -log10 of concentration in molar units.

Example entries and their recorded answers appear below.
INSERT INTO measurements (chemical_string, readout_value) VALUES
  ('CCN1CCC(S(=O)(=O)c2c(Cl)ccc(NC(=O)Nc3cccc(F)c3Cl)c2O)CC1', 6.80),
  ('CN1CCC2(CCC(S(=O)(=O)c3c(Cl)ccc(NC(=O)Nc4cccc(F)c4Cl)c3O)CC2)CC1', 7.60),
  ('CC(C)S(=O)(=O)c1c(Cl)ccc(NC(=O)Nc2cccc(F)c2Cl)c1O', 8.00),
  ('CN1CC[C@H](S(=O)(=O)c2c(Cl)ccc(NC(=O)Nc3cccc(Cl)c3Cl)c2O)C1', 6.60),
  ('CN1CCN(S(=O)(=O)c2c(Cl)ccc(NC(=O)Nc3cccc(Cl)c3Cl)c2O)CC1', 6.00),
  ('O=C(Nc1ccc(Cl)c(C(=O)N2CCCC2)c1O)Nc1cccc(F)c1Cl', 8.10),
  ('CN1CCN(S(=O)(=O)c2c(Cl)ccc(NC(=O)Nc3cccc(F)c3Cl)c2O)CC1', 6.50),
  ('CN1CCC(S(=O)(=O)c2c(Cl)ccc(NC(=O)Nc3cccc(Cl)c3Cl)c2O)CC1', 6.80);

*Q* What measured pIC50 goes with CC(C)(C)S(=O)(=O)c1c(Cl)ccc(NC(=O)Nc2cccc(F)c2Cl)c1O ?
*A* 7.40
